Test system: PTmAb0005
assayOverview: Phage display ranking of peptide ligands for PTmAb0005
Type: binding
runConditions: IgEC67 mutants (Table 8)
Description: Phage display libraries were used to map the binding sites of the monoclonal antibodies using three different phage libraries, displaying either the XCX15, XCX10 or XAX10 peptide sequence (where X is any amino acid) at the N-terminus of the phage gVIIIp. Tables 6 and 7 show the results of selecting for peptide ligands with the anti human IgE monoclonal antibodies […]. […]
Readings of PTmAb Rank 0005 for the listed sequences
Output: the number by itself.

Before answering, review these 6 worked examples.
- sequenceContent: "ADGAGCFMNKQLADPELCPREAEEA [IgEC67-4]"
  PTmAb Rank 0005: 2.4
- sequenceContent: "ADGAACFMNKQMADLELCPRVAAEA [IgEC67-2]"
  PTmAb Rank 0005: 3.2
- sequenceContent: "ADGAGCFINKQLADLELCPREAAEA [IgEC67-12]"
  PTmAb Rank 0005: 3
- sequenceContent: "ADGAGCFINKQLADLELCPRVAAEA [IgEC67-3]"
  PTmAb Rank 0005: 3
- sequenceContent: "ADGAGCFMNKQLADLELCPREAAEA [IgEC67-7]"
  PTmAb Rank 0005: 1
- sequenceContent: "ADGAGCFMNKQLVDLELCPRGAAEA [IgEC67-5]"
  PTmAb Rank 0005: 1.9

Then there is this sequence:
**Q:** PTmAb Rank 0005 lookup needed for ADGAGCFMNKQMADLELCPREAAEA [IgEC67-10] , thanks.
**A:** 4.2
